molecular target: human µOR (Homo sapiens, UniProt P35372); construct: host or cells: CHO cells (CHO-hµOR; CHO-hµOR-p22F for the cAMP assay); test: biochemical; format: binding
Sequence (P35372 whole entry): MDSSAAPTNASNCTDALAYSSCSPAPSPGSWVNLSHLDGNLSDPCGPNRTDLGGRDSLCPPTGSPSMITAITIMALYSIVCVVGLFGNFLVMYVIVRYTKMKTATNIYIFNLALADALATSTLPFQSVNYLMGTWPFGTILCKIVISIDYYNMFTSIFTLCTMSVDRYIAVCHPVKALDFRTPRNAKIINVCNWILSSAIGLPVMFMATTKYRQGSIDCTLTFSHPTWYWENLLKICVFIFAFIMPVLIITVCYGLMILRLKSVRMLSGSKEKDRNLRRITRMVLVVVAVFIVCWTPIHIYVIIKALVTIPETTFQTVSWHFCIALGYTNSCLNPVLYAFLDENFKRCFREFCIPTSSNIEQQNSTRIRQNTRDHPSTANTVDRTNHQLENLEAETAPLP
Exam item: assign yes (1) to entries whose Ki ratio κOR/µOR is below 80 and no (0) to entries at or above 80. Note that a value of exactly 80 receives no (0).

• Oc1ccc2c3c1O[C@H]1[C@@H](O)C=C[C@H]4[C@@H](C2)N(CCc2ccccc2)CC[C@@]341 = no (0)
• CO[C@@]12CCC(=O)[C@]3(C)Oc4c(O)ccc5c4[C@@]31CCN(CCc1ccccc1)[C@@H]2C5 = no (0)
• CO[C@@]12CCC(=O)[C@@H]3Oc4c(O)ccc5c4[C@@]31CCN(C)[C@@H]2C5 [14-OMO (3), 14-O-methyloxymorphone, reference compound] = yes (1)
• CO[C@@]12CCC(=O)[C@]3(C)Oc4c(O)ccc5c4[C@@]31CCN(C)[C@@H]2C5 [14-MM (4), 14-methoxymetopon, reference compound] = yes (1)

Exercise: Given the entry CO[C@@]12CCC(=O)[C@@H]3Oc4c(O)ccc5c4[C@@]31CCN(CCc1ccccc1)[C@@H]2C5 , would its reported Ki ratio κOR/µOR be below 80?
Key: no (0)

###

molecular target: human µOR (Homo sapiens); construct: host or cells: CHO cells (CHO-hµOR; CHO-hµOR-p22F for the cAMP assay); assay: cell-based; format: cell-based
MEASURED PROPERTY: pEC50
Note: pEC50 values are expressed as the negative base-10 logarithm of concentration in M.

- Oc1ccc2c3c1O[C@H]1[C@@H](O)C=C[C@H]4[C@@H](C2)N(CCc2ccccc2)CC[C@@]341: 8.54

Item: CO[C@@]12CCC(=O)[C@@H]3Oc4c(O)ccc5c4[C@@]31CCN(CCc1ccccc1)[C@@H]2C5 | pEC50: 10.11

Item: CO[C@@]12CCC(=O)[C@]3(C)Oc4c(O)ccc5c4[C@@]31CCN(C)[C@@H]2C5 [14-MM (4), 14-methoxymetopon, reference compound] | pEC50: 9.51

Item: CO[C@@]12CCC(=O)[C@@H]3Oc4c(O)ccc5c4[C@@]31CCN(C)[C@@H]2C5 [14-OMO (3), 14-O-methyloxymorphone, reference compound] | pEC50: 9.72

Item: CO[C@@]12CCC(=O)[C@]3(C)Oc4c(O)ccc5c4[C@@]31CCN(CCc1ccccc1)[C@@H]2C5 | pEC50: 9.82

###

Measured µOR % stim., listed per entry for reference.
target: human µOR (Homo sapiens, UniProt P35372); construct: host or cells: CHO cells (CHO-hµOR; CHO-hµOR-p22F for the cAMP assay); test: [35S]GTPγS binding assay, CHO-hµOR membranes; format: biochemical; settings: [35S]GTPγS binding; relative to DAMGO
Please give a number only; it is taken to be in %.

// known answers, use as guide
- CO[C@@]12CCC(=O)[C@@H]3Oc4c(O)ccc5c4[C@@]31CCN(CCc1ccccc1)[C@@H]2C5 [Compound 3a]: 98
- CO[C@@]12CCC(=O)[C@]3(C)Oc4c(O)ccc5c4[C@@]31CCN(CCc1ccccc1)[C@@H]2C5 [Compound 4a]: 102
- CO[C@@]12CCC(=O)[C@]3(C)Oc4c(O)ccc5c4[C@@]31CCN(C)[C@@H]2C5 [14-MM (4), 14-methoxymetopon, reference compound]: 99

The record that follows has no µOR % stim. shown yet.
Item: CO[C@@]12CCC(=O)[C@@H]3Oc4c(O)ccc5c4[C@@]31CCN(C)[C@@H]2C5 [14-OMO (3), 14-O-methyloxymorphone, reference compound] | µOR % stim.: 95

###

target: human µOR (Homo sapiens, UniProt P35372); construct: host or cells: CHO cells (CHO-hµOR; CHO-hµOR-p22F for the cAMP assay); experiment: biochemical; type: binding
Measured Ki, listed per entry for reference.
Please give a number only; it is taken to be in nM.

// known answers, use as guide
• CO[C@@]12CCC(=O)[C@@H]3Oc4c(O)ccc5c4[C@@]31CCN(C)[C@@H]2C5 [14-OMO (3), 14-O-methyloxymorphone, reference compound] = 0.27
• CO[C@@]12CCC(=O)[C@@H]3Oc4c(O)ccc5c4[C@@]31CCN(CCc1ccccc1)[C@@H]2C5 = 0.19
• Oc1ccc2c3c1O[C@H]1[C@@H](O)C=C[C@H]4[C@@H](C2)N(CCc2ccccc2)CC[C@@]341 = 0.25

The record that follows has no Ki shown yet.
Item: CO[C@@]12CCC(=O)[C@]3(C)Oc4c(O)ccc5c4[C@@]31CCN(CCc1ccccc1)[C@@H]2C5 | Ki: 0.24

###

biological target: human µOR (Homo sapiens, UniProt P35372); construct: host or cells: CHO cells (CHO-hµOR; CHO-hµOR-p22F for the cAMP assay); experiment: biochemical; format: binding
Exam item: assign TRUE to entries whose Ki ratio δOR/µOR is below 30 and FALSE to entries at or above 30. Note that a value of exactly 30 receives FALSE.

Example results:
* CO[C@@]12CCC(=O)[C@]3(C)Oc4c(O)ccc5c4[C@@]31CCN(CCc1ccccc1)[C@@H]2C5 | TRUE
* Oc1ccc2c3c1O[C@H]1[C@@H](O)C=C[C@H]4[C@@H](C2)N(CCc2ccccc2)CC[C@@]341 | FALSE
* CO[C@@]12CCC(=O)[C@]3(C)Oc4c(O)ccc5c4[C@@]31CCN(C)[C@@H]2C5 [14-MM (4), 14-methoxymetopon, reference compound] | FALSE
* CO[C@@]12CCC(=O)[C@@H]3Oc4c(O)ccc5c4[C@@]31CCN(C)[C@@H]2C5 [14-OMO (3), 14-O-methyloxymorphone, reference compound] | FALSE

// switching to the query compound
Exercise: Given the entry CO[C@@]12CCC(=O)[C@@H]3Oc4c(O)ccc5c4[C@@]31CCN(CCc1ccccc1)[C@@H]2C5 , would its reported Ki ratio δOR/µOR be below 30?
Key: TRUE

###

Measured Emax, listed per entry for reference.
molecular target: human δOR (Homo sapiens); construct: host or cells: CHO cells (CHO-hδOR; CHO-hδOR-p22F for the cAMP assay); assay: Forskolin-induced cAMP accumulation assay, CHO-hδOR-p22F cells; assay type: cell-based; conditions: read-out: δOR % stim.
Sequence (P41143 whole entry): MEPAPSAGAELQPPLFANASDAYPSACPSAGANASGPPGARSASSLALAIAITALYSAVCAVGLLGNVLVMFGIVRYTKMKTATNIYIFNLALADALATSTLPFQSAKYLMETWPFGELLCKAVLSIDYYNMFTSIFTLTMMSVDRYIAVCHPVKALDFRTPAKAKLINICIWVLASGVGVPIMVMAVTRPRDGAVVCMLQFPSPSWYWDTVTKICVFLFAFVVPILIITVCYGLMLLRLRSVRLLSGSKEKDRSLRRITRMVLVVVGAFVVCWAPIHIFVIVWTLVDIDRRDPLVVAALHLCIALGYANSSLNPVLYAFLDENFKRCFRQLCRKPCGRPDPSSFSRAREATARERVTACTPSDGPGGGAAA
Please give a number only; it is taken to be in %.

Item: CO[C@@]12CCC(=O)[C@]3(C)Oc4c(O)ccc5c4[C@@]31CCN(C)[C@@H]2C5 [14-MM (4), 14-methoxymetopon, reference compound] | Emax: 99

Item: CO[C@@]12CCC(=O)[C@]3(C)Oc4c(O)ccc5c4[C@@]31CCN(CCc1ccccc1)[C@@H]2C5 | Emax: 96

Item: CO[C@@]12CCC(=O)[C@@H]3Oc4c(O)ccc5c4[C@@]31CCN(C)[C@@H]2C5 [14-OMO (3), 14-O-methyloxymorphone, reference compound] | Emax: 98

Item: CO[C@@]12CCC(=O)[C@@H]3Oc4c(O)ccc5c4[C@@]31CCN(CCc1ccccc1)[C@@H]2C5 | Emax: 93

Item: Oc1ccc2c3c1O[C@H]1[C@@H](O)C=C[C@H]4[C@@H](C2)N(CCc2ccccc2)CC[C@@]341 | Emax: 105

###

Measured EC50, listed per entry for reference.
biological target: human µOR (Homo sapiens, UniProt P35372); construct: host or cells: CHO cells (CHO-hµOR; CHO-hµOR-p22F for the cAMP assay); experiment: [35S]GTPγS binding assay, CHO-hµOR membranes; assay type: biochemical
Please give a number only; it is taken to be in nM.

// known answers, use as guide
- CO[C@@]12CCC(=O)[C@@H]3Oc4c(O)ccc5c4[C@@]31CCN(CCc1ccccc1)[C@@H]2C5: 1.26
- CO[C@@]12CCC(=O)[C@]3(C)Oc4c(O)ccc5c4[C@@]31CCN(C)[C@@H]2C5 [14-MM (4), 14-methoxymetopon, reference compound]: 2.66
- CO[C@@]12CCC(=O)[C@@H]3Oc4c(O)ccc5c4[C@@]31CCN(C)[C@@H]2C5 [14-OMO (3), 14-O-methyloxymorphone, reference compound]: 1.21

The record that follows has no EC50 shown yet.
Item: CO[C@@]12CCC(=O)[C@]3(C)Oc4c(O)ccc5c4[C@@]31CCN(CCc1ccccc1)[C@@H]2C5 | EC50: 1.86

###

target: human κOR (Homo sapiens); construct: host or cells: CHO cells (CHO-hκOR); test: [35S]GTPγS binding assay, CHO-hκOR membranes; format: biochemical; conditions: [35S]GTPγS binding; relative to U69,593
Sequence (P41145 whole entry): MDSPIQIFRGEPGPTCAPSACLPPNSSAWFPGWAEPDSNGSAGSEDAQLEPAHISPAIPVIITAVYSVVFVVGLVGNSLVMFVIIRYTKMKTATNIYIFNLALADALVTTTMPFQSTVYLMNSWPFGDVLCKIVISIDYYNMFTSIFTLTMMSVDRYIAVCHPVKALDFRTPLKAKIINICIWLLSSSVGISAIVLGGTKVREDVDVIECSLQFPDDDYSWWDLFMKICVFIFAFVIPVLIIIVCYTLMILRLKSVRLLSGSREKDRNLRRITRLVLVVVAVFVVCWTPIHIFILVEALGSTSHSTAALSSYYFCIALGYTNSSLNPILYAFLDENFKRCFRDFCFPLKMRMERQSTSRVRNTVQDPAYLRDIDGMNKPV
MEASURED PROPERTY: κOR % stim. (%)
Please give a number only; it is taken to be in %.

// known answers, use as guide
* CO[C@@]12CCC(=O)[C@]3(C)Oc4c(O)ccc5c4[C@@]31CCN(CCc1ccccc1)[C@@H]2C5 [Compound 4a] | 51.3
* CO[C@@]12CCC(=O)[C@]3(C)Oc4c(O)ccc5c4[C@@]31CCN(C)[C@@H]2C5 [14-MM (4), 14-methoxymetopon, reference compound] | 68.9

Item: CO[C@@]12CCC(=O)[C@@H]3Oc4c(O)ccc5c4[C@@]31CCN(CCc1ccccc1)[C@@H]2C5 [Compound 3a] | κOR % stim.: 35.4

Item: CO[C@@]12CCC(=O)[C@@H]3Oc4c(O)ccc5c4[C@@]31CCN(C)[C@@H]2C5 [14-OMO (3), 14-O-methyloxymorphone, reference compound] | κOR % stim.: 65.9

# credit: paper PMC7101422
